This section presents binders with their documented neutralization IC50 values.
- studyTarget: Env of HIV-1 strain 3415.v1.c1 (HIV-1)
- method: cell-based or functional assay
Give the value, in units of µg/mL, as a plain number.

[
  {
    "binder": "γ52κ61 (antibody, V domains shown) VH: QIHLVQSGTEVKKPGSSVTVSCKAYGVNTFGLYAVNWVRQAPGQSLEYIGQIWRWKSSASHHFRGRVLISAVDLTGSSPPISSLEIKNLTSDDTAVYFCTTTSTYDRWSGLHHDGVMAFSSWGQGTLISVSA VL: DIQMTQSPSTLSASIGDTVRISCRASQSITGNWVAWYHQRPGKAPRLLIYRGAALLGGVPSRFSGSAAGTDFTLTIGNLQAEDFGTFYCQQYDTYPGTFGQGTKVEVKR",
    "neutralization IC50 / µg/mL": 0.681
  }
]

The recorded neutralization IC50 for 8ANC3040 (antibody, V domains shown) VH: QIHLVQSGTEVKKPGSSVTVSCKAYGVNTFGLYAVNWVRQAPGQSLEYIGQIWRWKSSASHHFRGRVLISAVDLTGSSPPISSLEIKNLTSDDTAVYFCTTTSTYDQWSGLHHDGVMAFSSWGQGTLISVSA VL: DIQMTQSPSTLSASIGDTVRISCRASQSITGNWVAWYQQRPGKAPRLLIYRGAALLGGVPSRFSGSAAGTDFTLTIGNLQAEDFGTFYCQQYDTYPGTFGQGTKVEVKR is 3.06
